Can you tell me melting point for the items I'm about to list?

These recorded examples may help you get a feel for the data.
Compound | Assay value
CC(C)(C)OC(=O)CN1C(=O)SC(Cc2ccc(N3CCC(NCC(O)c4ccc(O)c(NS(C)(=O)=O)c4)CC3)cc2)C1=O (stereo not given) | 130 to 132 °C
C=Cn1c(Cl)cc(Cl)c(O)c1=S | 114 °C
N=C(N)NCCC[C@H](NC(=O)CNC(=O)C(CS)Cc1ccccc1)C(=O)O (stereo not given in full) | 120 to 137 °C
CC(=O)OCC(=O)C1(O)CCC2C3CCC4=CC(=O)C=CC4(C)C3C(O[Si](C)(C)C)CC21C (stereo not given) | 180 to 184 °C
CCc1cc(CC)c2oc(C(=O)O)cc(=O)c2c1O | 218 to 220 °C

Hi! Can you tell me melting point for each of these compounds?
1. COc1ccc(C2CCN(c3c(C)c(C)c4c(c3C)C(Nc3ccccc3)C(C)(C)O4)CC2)cc1OC (stereo not given)
2. C#CCN(Cc1ccc2nc(C)[nH]c(=O)c2c1)c1ccc(C(=O)NC(COC(C)=O)c2cccc([N+](=O)[O-])c2)cc1 (stereo not given)
3. Cc1cc(SCc2cccc3[nH]c(-c4ccc(C(F)(F)F)cc4)cc23)ccc1OCC(=O)O
4. COc1ccc(C(=O)Nc2nc3ccc(N)cc3c(NCc3cccs3)c2C#N)cc1
5. CC1(C)Cc2c(c(N3CCOCC3)nc3sc4c(NCCCN5CCCC5=O)ncnc4c23)CO1
6. COc1cc(C)nc(-n2ccnc2)n1
7. O=C1N(CC2CCCO2)c2ccccc2C12COc1cc3c(cc12)OCCO3 (stereo not given)

1. 138 to 140 °C
2. 133 to 135 °C
3. 85 to 88 °C
4. 200 to 203 °C
5. 216 to 217 °C
6. 53 to 54 °C
7. 174 to 176 °C

The following compounds each have a reported value; give each one's melting point.
1. O=C1CCCNC12CCCCC2
2. Cn1ccnc1S(=O)(=O)C(C#N)=Cc1c(Cl)n(CC2CC2)c2ccccc12
3. CCCCc1nn(-c2cc(NC(=O)CC)ccc2Br)c(=O)n1Cc1ccc(-c2ccccc2S(=O)(=O)NC(=O)OC(C)(C)C)cc1F
4. COC(=O)c1sc(C)c(C#N)c1N
5. COc1cc(C)ccc1S(=O)(=O)NC(=O)C(c1cc(OC)c2c(c1)OCO2)c1cn(C)c2cc(CO)ccc12 (stereo not given)

1. 55 °C
2. 214 °C
3. 123 to 126 °C
4. 209 to 210 °C
5. 145 to 147 °C

Below are 7 compounds. Give each one its melting point.
1. COC(=O)C(C)(C)c1cn2nc(Cl)c(C)cc2n1
2. Cc1nc(C)c(C(=O)Nc2ccc(-n3nc(C4CC4)cc3C3CC3)cc2)s1
3. COC(=O)c1cc(N)c(Oc2cc(C)cc(C)c2)c(S(N)(=O)=O)c1
4. CC(CN1CC=C(c2ccc(Cl)cc2)CC1)C(O)c1ccc(Cl)cc1 (stereo not given)
5. O=C(/C=C/c1ccccc1Sc1ccc(Cl)cc1Cl)NCCCCO
6. CC1=C(c2ccccc2)C(=O)N(C(C)(C)c2cc(Cl)c(F)c(Cl)c2)CC1
7. C=CCNc1cccnc1S(N)(=O)=O

["98 to 99 °C", "98 to 114 °C", "195 to 196 °C", "110 to 112 °C", "68 to 71 °C", "154 to 159 °C", "134 to 135 °C"]

Below are some compounds; for each one, tell me its melting point.
1. CC1(C)Oc2ccc(OC(F)(F)F)cc2[C@@H](N2Cc3ccccc3C2=O)[C@@H]1O (relative stereo)
2. CC(=O)Nc1cc(F)c(OC(F)F)cc1[N+](=O)[O-]
3. CC(=O)OC1CSC(Oc2ccc(-c3ccoc3)cc2F)C(OC(C)=O)C1OC(C)=O (stereo not given)
4. O=C(O)C1CN(C(=O)N(c2ccccc2)c2ccccc2)CCN1C(=O)N(c1ccccc1)c1ccccc1 (stereo not given)
5. COc1c(OC)c(OC)c2c(c1OC)c(=O)c1ccc(OCc3ccccc3)c(OC)c1n2C
6. COCCN1CCc2ccc(Nc3ncc4ccc(-c5ccccc5)n4n3)cc2CC1

["212 to 213 °C", "72 to 74 °C", "137 °C", "244 to 246 °C", "127 to 128 °C", "116 to 118 °C"]

====

Give melting point for every item shown.

Batch lookup, melting point per entry.
1. CCOC1(NC(=O)c2ccccc2)CC1
2. COc1ccc2c(c1)c(Cc1cc(=O)n(-c3ccc(C)nn3)[nH]1)c(C)n2C(=O)c1ccc(Cl)cc1

1: 108 to 109 °C; 2: 122 to 124 °C

Hi team, please reply with melting point for each item in this list.
1. Cc1cc2c(Cl)cc(F)c(-c3ccc(C(F)(F)F)n(C)c3=O)c2o1
2. CC1=NN(CC(C)C)S(=O)(=O)c2sc(S(N)(=O)=O)cc21
3. COc1ccc(N2C(=O)C3=C(CCCC3)C2CC(=O)N2CCCCC2)cc1 (centres undefined)

1. 138 to 140 °C
2. 140 to 142 °C
3. 101 to 102 °C

Batch request: melting point per item, same order as input.
1. CCOC(=O)C1=CN(c2ccc(Cl)c(Cl)c2Cl)N(N)C1
2. CCOc1nc(Cl)nc2cscc12
3. O=C1c2ccccc2C(=O)N1CCC(=O)N1c2ccccc2N(Cc2ccccc2)C(=O)[C@H]2CCC[C@H]21 (relative stereo)
4. COC1=CC(=O)c2c(c(CO)cn2C)C1=O

["158 to 159 °C", "136 to 140 °C", "242 to 244 °C", "182 to 184 °C"]

====

For each entry below, report its melting point value.

Some entries whose results are on file:
Molecule | melting point
Clc1nccc(N2CCC3(CC2)COc2ccccc23)c1Cl | 177 °C
O=[N+]([O-])c1cc(C(F)(F)F)cc2c1nc(C(F)(F)F)n2S(=O)(=O)c1ccccc1 | 183 to 185 °C
Cc1cc(SCc2cc(-c3ccc(Cl)cc3)on2)ccc1OCC(=O)O | 79 to 80 °C

Batch of 6 molecules: report melting point for each.
1. CC(=O)N1CCN=C1Nc1cc(C)nn1-c1ccc(Cl)c(Cl)c1
2. CCCOCCOc1ccc(-c2ccc3c(c2)C=C(C(=O)O)CCN3CCCOCC)cc1
3. CCOC(=O)COc1ccc(C(C)=O)cc1NC(=O)c1ccc(OCCCCc2ccccc2)cc1
4. Nc1nc2c(s1)CCN(CCCCCc1ccccc1)CC2
5. Oc1cc(-c2ccccc2)nc2ccc(Cl)cc12
6. CCOC(=O)c1nc2c(C)nn(CC)c2nc1OCC

1. 156 to 157 °C
2. 98 to 100 °C
3. 105 to 107 °C
4. 102 to 105 °C
5. > 350 °C
6. 81 to 82 °C

====

Would you kindly list melting point for each of these compounds?

Required: melting point, one value per compound below.
1. Cc1cn(C(C)(C)C(=O)N(C)C)nc1-c1ccccc1C#N
2. COCCOc1cc(N)c(Cl)cc1C(=O)OC
3. COc1ccc(-c2nc3n(c2-c2ccc(OC)cc2)Cc2ccccc2C3)cc1
4. COc1ccc(-c2cc(Br)c3cc(OC)ccc3n2)cc1
5. O=C(CSc1ccncc1)Nc1cccc(-c2ccnc3c(C(=O)c4cccs4)cnn23)c1
6. NC1COC2=CC3=C(OCCC3)C(=O)C21 (centres undefined)

["124 to 126 °C", "121 to 122 °C", "170 to 172 °C", "157 to 158 °C", "138 to 144 °C", "> 260 °C"]

====

Answer each item with its documented melting point.

Here's what some known entries look like.
Molecule | Assay value
COc1cc(CCCC2OC(=O)NC2=O)ccc1OCc1coc(/C=C/c2ccccc2)n1 (stereo not given) | 178 to 179 °C
COC(=O)Nc1ccc(OCc2nc3ccccc3s2)cc1 | 142 to 144 °C
CC(OC(=O)Nc1ccc(-c2ncn(-c3ccc(OC(F)(F)F)cc3)n2)cc1)C(F)(F)C(F)(F)F (stereo not given) | 171 to 173 °C
COC(=O)COc1ccc(C(=O)C(C)(C)Br)cc1 | 46 to 50 °C
COc1ccc(Cl)cc1S(=O)(=O)N(C)c1ccccc1 | 88 to 89 °C
CN(C)CCc1cccc(N2C(=O)N(c3ccc(Cl)cc3Cl)Cc3cnc(Nc4ccccc4)nc32)c1 | 101 to 105 °C

Could you report melting point for every entry in the following list?
1. Cc1oc(-c2ccco2)nc1COc1ccc(COc2nn(-c3ccccc3)cc2C=O)cc1
2. Cc1ccc2c(c1)C=Cc1cc(C)ccc1C2c1cn(Cc2nc(C(=O)O)co2)c(=O)[nH]c1=S
3. Cc1cc(OCCCCCl)cc(-c2ccc(F)cc2)n1
4. S=C1N=c2ccc(OCCN3CCC(Cc4ccccc4)CC3)cc2=N1
5. COc1nsc(NC(=O)[C@H](C)NC(=O)[C@H](Cc2ccccc2)NC(=O)OCc2ccccc2)n1
6. CCOC(=O)C(=Cc1ccc(OC)c(O)c1)C(=O)OCC
7. CCCCC1(CCCC)N[C@@H](c2nc(-c3ccccc3)c[nH]2)Cc2c1sc1ccccc21

148 to 149 °C
273 °C
59 to 61 °C
273 to 275 °C
161 to 162 °C
81 to 83 °C
198 to 200 °C

// for each molecule below, give its melting point
1. CCC1(CCCN2CCN(c3ccccn3)CC2)C(=O)Nc2ccccc21 (stereo not given)
2. CC1(C)OC[C@@H](N)[C@H](O)CO1 (relative stereo)

["122 to 124 °C", "81.5 to 82.5 °C"]
